Attribute: pEC50
# assay_system: T1, human GPC3 on cells (human, UniProt P51654 25-554)
# T1 construct: whole, on cells; over-expressed on CHOK1 cells or endogenous on HEPG2, Hep3B and Huh-7 hepatocellular carcinoma cells; the cell line is named under assay; also called GPC3-CHOK1 cells; human GPC3 over-expressed CHOK1 cells
# assay_method_text: FACS, GPC3-CHOK1 cells
pEC50: −log10 of the molar value.

{"binder": "52H5D3B8-20#-VH2+VL3 (antibody, V domains shown) VH: QVQLVQSGAEVKKPGASVKVSCKASGYRFTDYEMHWVRQAPGQGLEWIGAIHPGSGGTAYNQLFKGRVTMTADTSTSTVYMELSSLRSEDTAVYYCTRYYSYAYWGQGTLVTVSS VL: DIVMTQTPLSLSVTPGQPASISCRSSQSLVHSNGNTYLQWYLQKPGQSPKLLIYKVSNRFPGVPDRFSGSGSGTDFTLKISRVEAEDVGVYYCVESIHVPYTFGGGTKLEIK", "pEC50": 9.68}
{"binder": "52H5D3B8-19#-VH2+VL3 (antibody, V domains shown) VH: QVQLVQSGAEVKKPGASVKVSCKASGYTFTGYEMHWVRQAPGQGLEWIGAIHPGSGGTAYNQKFKGRVTMTADTSTSTVYMELSSLRSEDTAVYYCTRYYSYAYWGQGTLVTVSS VL: DIVMTQTPLSLSVTPGQPASISCRSSQSLVHSNGNTYLQWYLQKPGQSPKLLIYKVSNRFAGVPDRFSGSGSGTDFTLKISRVEAEDVGVYYCVESIHVPYTFGGGTKLEIK", "pEC50": 9.68}
{"binder": "52H5D3B8-6#-VH2+VL3 (antibody, V domains shown, humanized) VH: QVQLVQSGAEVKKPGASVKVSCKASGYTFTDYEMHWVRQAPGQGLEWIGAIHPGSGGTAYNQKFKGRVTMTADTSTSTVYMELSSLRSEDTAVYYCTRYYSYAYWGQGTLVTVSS VL: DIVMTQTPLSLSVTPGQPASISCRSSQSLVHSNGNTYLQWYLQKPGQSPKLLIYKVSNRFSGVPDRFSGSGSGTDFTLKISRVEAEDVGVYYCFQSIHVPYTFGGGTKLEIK", "pEC50": 9.39}
